System: HOP-62 NSCLC
test_summary: NCI tumour cell line growth inhibition, 48 h; in the data active = GI50 below about 0.43 µM; inactive = the rest
Outcomes: active, inactive

| compound | cat |
| --- | --- |
| CC(C)(C)CC(C)(C)c1ccc(OCCO)cc1 | inactive |
| Nc1c(C(=O)Nc2cccc(Cl)c2)sc2nc3c(cc12)C(=O)CCC3 | inactive |
| Sc1cccc2cccnc12 | inactive |
| CCOC(=O)c1noc2c1CCc1c-2cn(Cc2ccc(OC)cc2)c1-c1cc(OC)c(OC)c(OC)c1 | inactive |
| O=C(/C=C\c1ccc(O)c(O)c1)c1ccccc1O | inactive |
| CC(=O)/C(=C\c1ccc(Cl)cc1)c1ccccc1 | active |
| CNC(=O)Oc1cc(C(C)C)ccc1Sc1ccc(C(C)C)cc1OC(=O)NC | inactive |
| CC(C)=CC[C@@H]1CC2(CC=C(C)C)C(=O)C(OC3(C(=O)c4ccccc4)C(=O)C4(CC=C(C)C)C[C@@H](CC=C(C)C)C(C)(C)C(CC=C(C)C)(C4=O)C3=O)(C(=O)c3ccccc3)C(=O)C(CC=C(C)C)(C2=O)C1(C)C (stereo not given in full) | inactive |
| N#CCCNc1nonc1-c1nc2ccccc2n1CC(=O)c1ccc(N)cc1 | active |
| N#CC1=C(N)Oc2c(sc3c(Br)cccc23)C1c1ccc([N+](=O)[O-])cc1 (stereo not given) | active |

###

Test system: SK-MEL-2 melanoma
test_summary: NCI tumour cell line growth inhibition, 48 h
Where a SMILES comes first, the peptide text is derived from it. Bridges are numbered along the chain shown (N, C = ends). The star is where a group is joined. Cbz = O=C(OCc1ccccc1)*

| molecule | TGI |
| --- | --- |
| NC(Cc1ccc(CP(=O)(O)O)cc1)C(=O)O (centres undefined) | > 100 µM |
| Clc1ccc(/C=C/c2nc(-c3ccccc3)cn3c2nc2ccccc23)cc1Cl | > 100 µM |
| CCN(CC)C(=O)CCn1ccc(=O)[nH]c1=O | > 100 µM |
| O=C(CCc1nnc2s/c(=C\c3ccc([N+](=O)[O-])cc3)c(=O)n12)Nc1ccc(Cl)c(Cl)c1 | 73.9 µM |
| COc1ccc2c(-c3csc(-c4c[nH]c5ccc(Br)cc45)n3)c[nH]c2c1 | > 100 µM |
| C=C1CC[C@](C)(O)[C@@]2(C)CC[C@H]3C(=C(C)C)C(=O)C[C@]3(C)C[C@H]12 | > 50 µM |
| O=C1CSC(c2c[nH]c3ccccc23)N1c1cccc(Cl)c1 (centres undefined) | 65.2 µM |
| Cn1cc(-c2ccc3nc(-c4ccc(CC(=O)Nc5cc(C(C)(C)C)no5)cc4)cnc3c2)cn1 | 0.581 µM |
| CNC(=O)C1CCCCNC(=O)CCC(NC(=O)OCc2ccccc2)C(=O)N1 (stereo not drawn) (Cbz-Glu-Lys-NHMe; lactam 1-2; configuration not given here) | > 100 µM |

###

Test system: M19-MEL melanoma
test_summary: NCI tumour cell line growth inhibition, 48 h
observable: TGI

| molecule | observable | data_value |
| --- | --- | --- |
| O=C(CCc1n[nH]c(=S)o1)Nc1cc(Cl)ccc1Cl | TGI | > 100 µM |
| N#CC(C(=O)CCCC(=O)Nc1ccccc1[N+](=O)[O-])c1c(Cl)cccc1Cl (stereo not given) | TGI | > 100 µM |
| C=C(Br)C(C)(Cl)CCC(Br)C(C)(C)Br (stereo not given) | TGI | > 100 µM |
| CC1(OCc2ccccc2)C(=O)N2C1NCC2(C)C (stereo not given) | TGI | > 100 µM |
| Cc1c(C(Cc2ccccc2N(C)C(=O)/C=C\C(=O)O)c2c[nH]c3ccccc23)c2ccccc2n1C (stereo not given) | TGI | 30.5 µM |
| NC(N)NCCCc1cn2c(n1)C1CCCN1C(=O)C2Cc1ccccc1 (stereo not given) | TGI | > 100 µM |
| CCN(CC)CC(=O)NC1c2ccccc2Oc2ccccc21 | TGI | > 100 µM |
| O=C(O)CN1CCSc2ccccc2CN(CC(=O)O)CCSc2ccccc2C1 | TGI | > 100 µM |
| C=C=C[P+](c1ccccc1)(c1ccccc1)c1ccccc1 | TGI | 91.9 µM |
| NCCCCCC(CCN)SCC1OC(n2cnc3c(N)ncnc32)C(O)C1O (stereo not given) | TGI | > 1500 µM |

###

System: HCC-2998 colon
test_summary: NCI tumour cell line growth inhibition, 48 h
observable: TGI

| molecule | data_value |
| --- | --- |
| CC1(C)CNC(=O)C2(CCCO2)CNC(C)(C)CNC(=O)C2(CCCO2)CN1 (stereo not given) | > 10 µM |
| C/C(=N/NC(=O)c1ccncc1)C(F)(F)F | > 100 µM |
| CCNC1=C(NC(=O)c2ccc(F)cc2)C(=O)c2ccccc2C1=O | > 100 µM |
| CN1C2CCC1/C(=C/c1cccc3c1OCO3)C(=O)/C2=C\c1cccc2c1OCO2 | > 100 µM |
| CC(C)=CCC/C(C)=C/CC/C(C)=C/CSC[C@H](NC(=O)CCCCCN1CCN(C)CC1)C(=O)NC1CCCCCC1 | 3.61 µM |

###

System: RXF 393 renal
test_summary: NCI tumour cell line growth inhibition, 48 h; in the data active means GI50 below about 0.43 µM; inactive means the rest
Outcomes: label 1 for active, label 0 for inactive

| compound | cat |
| --- | --- |
| Cn1cc(-c2ccc3nc(-c4ccc(CC(=O)Nc5cc(C(C)(C)C)no5)cc4)cnc3c2)cn1 | label 1 |
| C=CCc1cccc(C=O)c1O | label 0 |
| COc1cccc2c1nc(C(F)F)n2-c1nc(-c2ccc(NS(=O)(=O)CCN(C)C)cc2)nc(N2CCOCC2)n1 | label 1 |
| COc1cc(/C=C2\CC3C4CC=C5CC(OC(C)=O)CC[C@]5(C)C4CC[C@]3(C)C2=O)ccc1OCCN1CCCC1 (stereo not given in full) | label 0 |
| CCOc1ccc(N(C)c2ccc(/C=C/C3=[N+](C)c4ccccc4C3(C)C)cc2)cc1 | label 0 |

###

System: SF-295 CNS
test_summary: NCI tumour cell line growth inhibition, 48 h
observable: GI50

| compound | target_entity | data_value |
| --- | --- | --- |
| O=C1C=C(Nc2ccccc2)c2ccccc2C1=O | SF-295 CNS | 1.9 µM |
| Cc1cc(I)cc(CNCCN(C)C)c1O | SF-295 CNS | 42.6 µM |
| Sc1cccc2cccnc12 | SF-295 CNS | 0.645 µM |
| C/C(=C\C(=O)O[C@H]1[C@@H]2[C@H](C)CC[C@H]2[C@]2(C)O[C@@]1(C1CCCCC1)C[C@H]2OC(=O)CO)c1ccccc1 | SF-295 CNS | 6.08 µM |
| COc1cc(/C=C2\CC3C4CC=C5CC(OC(C)=O)CC[C@]5(C)C4CC[C@]3(C)C2=O)ccc1OCCN1CCCC1 (stereo partly specified) | SF-295 CNS | 4.8 µM |
| CC(=O)/C(=C\c1ccc(Cl)cc1)c1ccccc1 | SF-295 CNS | 0.054 µM |
| CN(C)CCNC(=O)c1cc2c3cc(Cl)ccc3[nH]c2c2ncccc12 | SF-295 CNS | 22.8 µM |
| C=CCc1cccc(C=O)c1O | SF-295 CNS | > 100 µM |
| O=[N+]([O-])c1ccc(C2=NCCO2)cc1 | SF-295 CNS | > 100 µM |
| ClC1=C(Cl)C(Cl)(C2(Cl)C(Cl)=C(Cl)C(Cl)=C2Cl)C(Cl)=C1Cl | SF-295 CNS | 2.05 µM |
| Cn1cc(-c2ccc3nc(-c4ccc(CC(=O)Nc5cc(C(C)(C)C)no5)cc4)cnc3c2)cn1 | SF-295 CNS | 0.0563 µM |

###

Test system: HCT-116 colon
test_summary: NCI tumour cell line growth inhibition, 48 h; in the data active = GI50 below about 0.43 µM; inactive = the rest
Outcomes: t (active), f (inactive)

| compound | cat |
| --- | --- |
| Cc1cccc2cc(/C=C/C(=O)/C=C/c3ccc(Cl)cc3)c(=O)[nH]c12 | t |
| CC(C)=CCC/C(C)=C/CC/C(C)=C/CSC[C@H](NC(=O)CCCCCN1CCN(C)CC1)C(=O)NC1CCCCCC1 | f |
| Nc1c(C(=O)Nc2cccc(Cl)c2)sc2nc3c(cc12)C(=O)CCC3 | f |
| O=c1[nH]c2ccccc2n1C1CCNCC1 | f |
| CCOC(=O)c1noc2c1CCc1c-2cn(Cc2ccc(OC)cc2)c1-c1cc(OC)c(OC)c(OC)c1 | t |
| CCC(=C(c1ccc(OCCN2CCCCC2)cc1)c1ccc(OCCN2CCCCC2)cc1)c1ccc(Cl)cc1 | f |
| CCN1CCN(CCC(=O)Nc2cccc(-n3cc(-c4ccncc4)c(-c4ccc(Cl)c(OC)c4)n3)c2)CC1 | t |
| O=[N+]([O-])c1ccc(C2=NCCO2)cc1 | f |
| CCN(Cc1ccc(OC)cc1)c1ccc(CO)c(Cl)c1 | t |
| C[C@@H]1CN2[C@H]3[C@@H]1CC[C@]31CCC(=O)O[C@]1(C)[C@H]1CC[C@H]3CCC=C3[C@@H]12 | f |
| Sc1cccc2cccnc12 | t |
| CC(C)=CC[C@@H]1CC2(CC=C(C)C)C(=O)C(OC3(C(=O)c4ccccc4)C(=O)C4(CC=C(C)C)C[C@@H](CC=C(C)C)C(C)(C)C(CC=C(C)C)(C4=O)C3=O)(C(=O)c3ccccc3)C(=O)C(CC=C(C)C)(C2=O)C1(C)C (some centres undefined) | f |
| CN1CCN(Cc2ccc(NC(=O)c3cncc(C#Cc4cnc(N)c5ncccc45)c3)cc2C(F)(F)F)CC1 | t |
| COc1ccc(-c2csc3c2-n2cccc2C3=O)cc1 | t |
| COc1ccc(C2=NN(C(N)=S)C(c3ccc4c(c3)OCO4)C2)cc1 (centres undefined) | f |
| O=C(CCCc1ccc(N(CCCl)CCCl)cc1)NCc1ccccc1 | f |
| Cc1c(Cl)cccc1C(=O)Nc1nc2c(s1)CN(C(=O)Nc1cccc(C(F)(F)F)c1)CC2 | t |
| CC(C)(C)CC(C)(C)c1ccc(OCCO)cc1 | f |
| ClC1=C(Cl)C(Cl)(C2(Cl)C(Cl)=C(Cl)C(Cl)=C2Cl)C(Cl)=C1Cl | t |
